ASSAY NOTES: Particle size distribution and specific surface area (LS 200, Small Volume Module, Fraunhofer optical model)
Format: physicochemical
CONDITION LABEL: Particle Diameter (Lower) 1.149 μm
Would you mind labelling by Cum. < Volume %? At or over 6% is label 1, under is label 0.

O=C(O)CCNC(=O)c1ccc(/N=N/c2ccc(O)c(C(=O)O)c2)cc1 [Feed Powder Sample C (#53.$02)]; label 1
O=C([O-])CCNC(=O)c1ccc(/N=N/c2ccc(O)c(C(=O)[O-])c2)cc1.[Na+].[Na+] [Sample 3]; label 1
O=C([O-])CCNC(=O)c1ccc(/N=N/c2ccc(O)c(C(=O)[O-])c2)cc1.[Na+].[Na+] [Sample 1]; label 1
O=C([O-])CCNC(=O)c1ccc(/N=N/c2ccc(O)c(C(=O)[O-])c2)cc1.[Na+].[Na+] [Sample 2]; label 1
O=C(O)CCNC(=O)c1ccc(/N=N/c2ccc(O)c(C(=O)O)c2)cc1 [Feed Powder Sample B (#41.$02)]; label 0
O=C(O)CCNC(=O)c1ccc(/N=N/c2ccc(O)c(C(=O)O)c2)cc1 [Feed Powder Sample A (#35.$01)]; label 0

API: the following record is the query input.
Does the reported Cum. < Volume % for O=C([O-])CCNC(=O)c1ccc(/N=N/c2ccc(O)c(C(=O)[O-])c2)cc1.[Na+].[Na+] [Sample 4] fall at or above the 6% mark?
label 0
